- Tested on: K-562 leukemia
- assay-procedure: NCI tumour cell line growth inhibition, 48 h
Where a SMILES comes first, the peptide text is derived from it. [ ]: non-standard residue; d: D form. The star is where a group is joined. ξ: configuration not given here. ξD = NC(CC(=O)O)C(=O)O; Ac3c = NC1(C(=O)O)CC1; Boc = CC(C)(C)OC(=O)*; OtBu = CC(C)(C)O*
Listing of recorded TGI by entry.

Example cases with answers are listed next.
molecule	TGI
COC(=O)C1(NC(=O)C(CC(=O)OC(C)(C)C)NC(=O)OC(C)(C)C)CC1 (centres undefined) (Boc-[ξD](OtBu)-[Ac3c]-OMe)	> 100 µM
COc1ccc(-c2onc(-c3c(C)cc(C)cc3C)c2C2=NCCN2)cc1	> 100 µM
Cn1c2c(c3ccccc31)CCN1C(=O)C3SC21C1C(=O)N(c2ccccc2)C(=O)C31 (centres undefined)	> 100 µM

Could you now consider this next molecule?
*Q* I would be grateful if you could share the reported TGI for CC(=O)C12C[C@](C#N)(N3CCCCCC3)C1C=Cc1ccccc12 (some centres undefined) .
*A* > 100 µM
